Assay Procedure: Drug metabolism test (pharmacokinetics, oral, mice)
Assay type: in vivo, ICR mice
Details: male, ICR, mouse, po, orally (intragastric), 10 mg/kg, plasma
Protocol: 18 healthy male ICR mice with a body weight of 18-22 g were administered drugs by intragastric administration, with an administration dose of 10 mg/kg and an administration volume of 10 mL/kg, respectively. […] When measured, the sample was treated through the method for treating the plasma sample, and the drug concentration in plasma was determined by LC-MS/MS and the pharmacokinetic parameters of the drug were calculated.
compounds and their reported AUC(0-inf)
API: value field is a number in ng·h/mL; no unit string.

Before answering, review these 3 worked examples.
O=[N+]([O-])c1cn2c(n1)OC[C@@H](NCc1ccc(N3CCN(c4ccc(OC(F)(F)F)cc4)CC3)nc1)C2 [Compound 4] : 17300
O=[N+]([O-])c1cn2c(n1)OC[C@@H](NCc1cnc(N3CCN(c4ccc(C(F)(F)F)cc4)CC3)nc1)C2 [Compound 31] : 22500
N#CC1(c2ccc(OC(F)(F)F)cc2)CCN(c2ncc(CN[C@@H]3COc4nc([N+](=O)[O-])cn4C3)cn2)CC1 [Compound 24] : 18300

Query block: Name the reported AUC(0-inf) value associated with the compound O=[N+]([O-])c1cn2c(n1)OC[C@@H](NCc1ccc(N3CCC(Oc4ccc(OC(F)(F)F)cc4)CC3)nc1)C2 [Compound 1]
Result block: 32300

Query block: Consider next the compound Cc1nc(N2CCN(c3ccc(OC(F)(F)F)cc3)CC2)ncc1CN[C@@H]1COc2nc([N+](=O)[O-])cn2C1 [Compound 36] in the same way.
Result block: 16700

----------
molecules and their reported Cmax
Assay Procedure: Drug metabolism test (pharmacokinetics, oral, mice)
Format: in vivo, ICR mice
Details: male, ICR, mouse, po, orally (intragastric), 10 mg/kg, plasma

Before answering, review these 4 worked examples.
O=[N+]([O-])c1cn2c(n1)OC[C@@H](NCc1cnc(N3CCN(c4ccc(OC(F)(F)F)cc4)CC3)nc1)C2 : 1470 ng/mL
O=[N+]([O-])c1cn2c(n1)OC[C@@H](NCc1ccc(N3CCN(c4ccc(OC(F)(F)F)cc4)CC3)nc1)C2 : 1780 ng/mL
N#CC1(c2ccc(OC(F)(F)F)cc2)CCN(c2ccc(CN[C@@H]3COc4nc([N+](=O)[O-])cn4C3)cn2)CC1 : 2030 ng/mL
O=[N+]([O-])c1cn2c(n1)OC[C@@H](NCc1cnc(N3CCN(c4ccc(C(F)(F)F)cc4)CC3)nc1)C2 : 2140 ng/mL

Here is the next item to consider.
Query block: Name the reported Cmax value associated with the molecule Cc1nc(N2CCN(c3ccc(OC(F)(F)F)cc3)CC2)ncc1CN[C@@H]1COc2nc([N+](=O)[O-])cn2C1
Result block: 2020 ng/mL

----------
Assay Procedure: Drug metabolism test (pharmacokinetics, oral, mice)
Format: in vivo, ICR mice
Details: male, ICR, mouse, po, orally (intragastric), 10 mg/kg, plasma
Property Label: AUC(0-inf) (µg·h/mL)
API: value field is a number in µg·h/mL; no unit string.

O=[N+]([O-])c1cn2c(n1)OC[C@@H](NCc1cnc(N3CCN(c4ccc(OC(F)(F)F)cc4)CC3)nc1)C2 [Compound 18] : 16.7
CC1CN(c2ncc(CN[C@@H]3COc4nc([N+](=O)[O-])cn4C3)cn2)CCN1c1ccc(OC(F)(F)F)cc1 (stereo partly shown) [Compound 19] : 16.8
CC1CN(c2ccc(OC(F)(F)F)cc2)CCN1c1ncc(CN[C@@H]2COc3nc([N+](=O)[O-])cn3C2)cn1 (stereo partly shown) [Compound 20] : 21.6

Here is the next item to consider.
Query block: Name the reported AUC(0-inf) value associated with the compound N#CC1(c2ccc(OC(F)(F)F)cc2)CCN(c2ccc(CN[C@@H]3COc4nc([N+](=O)[O-])cn4C3)cn2)CC1 [Compound 10]
Result block: 28.8

----------
Assay Procedure: physchem
Type: physicochemical
Details: pH 1.2, simulated gastric fluid, thermodynamic from solid, Solubility
Property Label: solubility at 3 days

Before answering, review these 2 worked examples.
Cc1nc(N2CCN(c3ccc(OC(F)(F)F)cc3)CC2)ncc1CN[C@@H]1COc2nc([N+](=O)[O-])cn2C1 [Compound 36] : > 1000 µg/mL
CC1CN(c2ncc(CN[C@@H]3COc4nc([N+](=O)[O-])cn4C3)cn2)CCN1c1ccc(OC(F)(F)F)cc1 (stereo partly drawn) [Compound 19] : > 1000 µg/mL

Here is the next item to consider.
Query block: Name the reported solubility at 3 days value associated with the compound O=[N+]([O-])c1cn2c(n1)OC[C@@H](NCc1cnc(N3CCN(c4ccc(OC(F)(F)F)cc4)CC3)nc1)C2 [Compound 18]
Result block: > 1000 µg/mL

----------
Assay Procedure: physchem
Assay type: physicochemical
Details: 3 days, pH 1.2
compounds and their reported Solubility
API: value field is a number in µg/mL; no unit string.

O=[N+]([O-])c1cn2c(n1)OC[C@@H](NCc1cnc(N3CCN(c4ccc(OC(F)(F)F)cc4)CC3)nc1)C2 [Compound 18] : 1532.1
CC1CN(c2ncc(CN[C@@H]3COc4nc([N+](=O)[O-])cn4C3)cn2)CCN1c1ccc(OC(F)(F)F)cc1 (stereo partly drawn) [Compound 19] : 1321.8
CC1CN(c2ccc(OC(F)(F)F)cc2)CCN1c1ncc(CN[C@@H]2COc3nc([N+](=O)[O-])cn3C2)cn1 (stereo partly drawn) [Compound 20] : 1023.8

Query block: Name the reported Solubility value associated with the compound O=[N+]([O-])c1cn2c(n1)OC[C@@H](NCc1ccc(N3CCN(c4ccc(OC(F)(F)F)cc4)CC3)nc1)C2 [Compound 4]
Result block: 1257.2

Query block: Consider next the compound O=[N+]([O-])c1cn2c(n1)OC[C@@H](NCc1cnc(N3CCN(c4ccc(C(F)(F)F)cc4)CC3)nc1)C2 [Compound 31] in the same way.
Result block: 1354.8

Query block: Consider next the compound Cc1nc(N2CCN(c3ccc(OC(F)(F)F)cc3)CC2)ncc1CN[C@@H]1COc2nc([N+](=O)[O-])cn2C1 [Compound 36] in the same way.
Result block: 1123.7

----------
Assay Procedure: physchem
Type: physicochemical
Details: pH 1.2, simulated gastric fluid, thermodynamic from solid, Solubility
Property Label: solubility at 3 days (mg/mL)
API: value field is a number in mg/mL; no unit string.

Before answering, review these 3 worked examples.
N#CC1(c2ccc(OC(F)(F)F)cc2)CCN(c2ccc(CN[C@@H]3COc4nc([N+](=O)[O-])cn4C3)cn2)CC1 : 0.522
O=[N+]([O-])c1cn2c(n1)OC[C@@H](OCc1ccc(OC(F)(F)F)cc1)C2 [PA-824, reference compound] : 0.017
O=[N+]([O-])c1cn2c(n1)OC[C@@H](NCc1ccc(N3CCC(Oc4ccc(OC(F)(F)F)cc4)CC3)nc1)C2 : 0.784

Here is the next item to consider.
Query block: Name the reported solubility at 3 days value associated with the compound N#CC1(c2ccc(OC(F)(F)F)cc2)CCN(c2ncc(CN[C@@H]3COc4nc([N+](=O)[O-])cn4C3)cn2)CC1
Result block: 0.781

----------
Assay Procedure: Drug metabolism test (pharmacokinetics, oral, mice)
Format: in vivo, ICR mice
Details: male, ICR, mouse, po, orally (intragastric), 10 mg/kg, plasma
Property Label: Tmax (h)
API: value field is a number in h; no unit string.

Before answering, review these 8 worked examples.
N#CC1(c2ccc(OC(F)(F)F)cc2)CCN(c2ncc(CN[C@@H]3COc4nc([N+](=O)[O-])cn4C3)cn2)CC1 : 2.17
N#CC1(c2ccc(OC(F)(F)F)cc2)CCN(c2ccc(CN[C@@H]3COc4nc([N+](=O)[O-])cn4C3)cn2)CC1 : 2.18
CC1CN(c2ccc(OC(F)(F)F)cc2)CCN1c1ncc(CN[C@@H]2COc3nc([N+](=O)[O-])cn3C2)cn1 (stereo partly drawn) : 2.33
CC1CN(c2ncc(CN[C@@H]3COc4nc([N+](=O)[O-])cn4C3)cn2)CCN1c1ccc(OC(F)(F)F)cc1 (stereo partly drawn) : 1.98
O=[N+]([O-])c1cn2c(n1)OC[C@@H](NCc1ccc(N3CCN(c4ccc(OC(F)(F)F)cc4)CC3)nc1)C2 : 2
Cc1nc(N2CCN(c3ccc(OC(F)(F)F)cc3)CC2)ncc1CN[C@@H]1COc2nc([N+](=O)[O-])cn2C1 : 1.87
O=[N+]([O-])c1cn2c(n1)OC[C@@H](NCc1cnc(N3CCN(c4ccc(C(F)(F)F)cc4)CC3)nc1)C2 : 1.97
O=[N+]([O-])c1cn2c(n1)OC[C@@H](NCc1cnc(N3CCN(c4ccc(OC(F)(F)F)cc4)CC3)nc1)C2 : 2

Here is the next item to consider.
Query block: Name the reported Tmax value associated with the compound O=[N+]([O-])c1cn2c(n1)OC[C@@H](NCc1ccc(N3CCC(Oc4ccc(OC(F)(F)F)cc4)CC3)nc1)C2
Result block: 2.33
